Recorded drug sensitivity score values for a group of compounds are listed next.
Tested on: Ly-BP RUNX1 p.R204Q
Assay: drug sensitivity score (DSS) (DSS score); higher = more sensitive (stronger growth inhibition); extreme values may be limits of the assay
Please state the value as a number alone, without comment.

Recorded drug sensitivity score, per entry:
>  <Compound>
CC(C)(C#N)c1cc(Cn2cncn2)cc(C(C)(C)C#N)c1 [Anastrozole]

>  <Readout label>
drug sensitivity score

>  <Result value>
0

$$$$
>  <Compound>
CC[C@]1(O)C[C@@H]2CN(CCc3c([nH]c4ccccc34)[C@@](C(=O)OC)(c3cc4c(cc3OC)N(C)[C@H]3[C@@](O)(C(=O)OC)[C@H](OC(C)=O)[C@]5(CC)C=CCN6CC[C@]43[C@@H]65)C2)C1 [Vinblastine]

>  <Readout label>
drug sensitivity score

>  <Result value>
5.49

$$$$
>  <Compound>
C[C@@H]1CCN(C(=O)CC#N)C[C@@H]1N(C)c1ncnc2[nH]ccc12 [Tofacitinib]

>  <Readout label>
drug sensitivity score

>  <Result value>
0

$$$$

[ask] Which drug sensitivity score value is on record for Cc1ccc(NC(=O)c2ccc(CN3CCN(C)CC3)cc2)cc1Nc1nccc(-c2cccnc2)n1 [Imatinib] ?
[reply] 0

[ask] Which drug sensitivity score value is on record for C[C@H]1C[C@@H]2[C@H]([C@@H](O)C[C@@]3(C)[C@H]2CC[C@]3(O)C(=O)CO)[C@@]2(C)C=CC(=O)C=C12 [Methylprednisolone] ?
[reply] 25.5

[ask] Which drug sensitivity score value is on record for CC(C)C[C@H](NC(=O)[C@H](CCc1ccccc1)NC(=O)CN1CCOCC1)C(=O)N[C@@H](Cc1ccccc1)C(=O)N[C@@H](CC(C)C)C(=O)[C@@]1(C)CO1 [Carfilzomib] ?
[reply] 31.7

[ask] Which drug sensitivity score value is on record for COc1nc(N)nc2c1ncn2[C@@H]1O[C@H](CO)[C@@H](O)[C@@H]1O [Nelarabine] ?
[reply] 3.14

* * *

Tested on: Ba/F3 P210-BCR-ABL1 RUNX1-/mut (mouse)
Assay: drug sensitivity score (DSS) (DSS score); higher = more sensitive (stronger growth inhibition); extreme values may be limits of the assay
Everything with drug sensitivity score lower than 7 is class 0; everything else, including exactly 7, is class 1.

>  <Smiles representation>
O=C(O)c1ccc(-c2c[nH]c3ncc(-c4ccccc4)cc23)cc1C1CCCC1

>  <Qualitative label>
class 0

$$$$

[ask] API: above_or_equal(metric=drug sensitivity score, cutoff=7) for item CC(C)Nc1cc(-c2c[nH]c(C(=O)N[C@H](CO)c3cccc(Cl)c3)c2)c(Cl)cn1
[reply] class 0

[ask] API: above_or_equal(metric=drug sensitivity score, cutoff=7) for item C[C@H]1CNCCCN1S(=O)(=O)c1cccc2cncc(F)c12
[reply] class 0

[ask] API: above_or_equal(metric=drug sensitivity score, cutoff=7) for item C[C@@H](Oc1cc(-n2cnc3ccc(CN4CCN(C)CC4)cc32)sc1C(N)=O)c1ccccc1C(F)(F)F
[reply] class 1

[ask] API: above_or_equal(metric=drug sensitivity score, cutoff=7) for item Cc1cnc(Nc2ccc(OCCN3CCCC3)cc2)nc1Nc1cccc(S(=O)(=O)NC(C)(C)C)c1
[reply] class 1

[ask] API: above_or_equal(metric=drug sensitivity score, cutoff=7) for item CNC(=O)c1ccc(C)c(-n2c(C)cc(OCc3ccc(F)cc3F)c(Br)c2=O)c1
[reply] class 0

[ask] API: above_or_equal(metric=drug sensitivity score, cutoff=7) for item Cc1nc(Nc2n[nH]c3c2CN(C(=O)N[C@H](CN(C)C)c2ccccc2)C3(C)C)c2sccc2n1
[reply] class 1
